# system under test: human FXIIa (Homo sapiens, UniProt P00748)
# Sequence (P00748 373-615 limits assumed): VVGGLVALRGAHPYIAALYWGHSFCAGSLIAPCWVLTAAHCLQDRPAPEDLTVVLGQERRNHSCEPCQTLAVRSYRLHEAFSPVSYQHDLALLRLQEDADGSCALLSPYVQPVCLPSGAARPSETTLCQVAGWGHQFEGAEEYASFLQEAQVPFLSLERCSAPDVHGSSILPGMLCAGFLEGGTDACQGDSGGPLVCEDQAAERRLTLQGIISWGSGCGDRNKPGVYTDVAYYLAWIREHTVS
# Sequence (P00748 20-372 partner limits assumed): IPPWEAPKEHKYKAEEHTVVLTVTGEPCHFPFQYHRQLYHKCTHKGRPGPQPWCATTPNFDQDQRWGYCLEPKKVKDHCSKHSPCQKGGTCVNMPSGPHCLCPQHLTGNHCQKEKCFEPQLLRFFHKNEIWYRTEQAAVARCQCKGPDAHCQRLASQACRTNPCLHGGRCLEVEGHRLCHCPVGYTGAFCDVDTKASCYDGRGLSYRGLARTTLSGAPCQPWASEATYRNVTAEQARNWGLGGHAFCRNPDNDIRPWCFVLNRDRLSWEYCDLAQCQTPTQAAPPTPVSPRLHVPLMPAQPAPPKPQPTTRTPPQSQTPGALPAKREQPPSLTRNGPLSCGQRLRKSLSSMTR
# test description: Direct inhibition of human FXIIa, chromogenic substrate hydrolysis assay
# measurement conditions: human FXIIa, pH 7.4, 37 °C
Measured HS (Hill slope), listed per entry for reference.
Answer with a bare number; do not write a unit.

Reference set, count: 3
HS (Hill slope) measured on CCOC(=O)c1nc(N)n(C(=O)c2ccccc2)n1 [compound 31] = 0.9

HS (Hill slope) measured on COC(=O)c1nc(N)n(C(C)=O)n1 [compound 32] = 0.9

HS (Hill slope) measured on COC(=O)c1nc(N)n(C(=O)c2ccc(Br)cc2)n1 [compound 21] = 0.5

Others:
HS (Hill slope) measured on COC(=O)c1nc(N)n(C(=O)c2ccc(Cl)cc2)n1 [compound 19] = 0.8

HS (Hill slope) measured on CC(C)(C)c1ccc(C(=O)n2ncnc2N)cc1 [compound 10] = 1.4
